# Tested System: IgM^CM-22
# Method Description: SPR analysis of peptide binding to IgM^CM-22-coupled surface
# Parameters: species or system mouse
# Protocol Conditions: calculated from steady-state response levels, 1:1 Langmuir fit; mean±SD, n=2; 25° C.
Parameter Measured: pKd
Answers are plain numbers, as −log10 of the molar value.

[in] // pKd lookup, key: LMKNMDPLNDNV [N2]
[out] 3.91
